Values were extracted from patent US20060276464A1.

Attribute: melting point

[
  {
    "entry.smiles": "CC(C)c1ccc(S(=O)(=O)c2ccccc2)cc1S(=O)(=O)NC1CCN(C(=O)c2ccc(F)cc2)CC1",
    "reported.result": "218 to 220 °C"
  },
  {
    "entry.smiles": "CCOc1ccc2ccccc2c1C(=O)N1CCC(NS(=O)(=O)c2cc(S(=O)(=O)c3ccccc3)ccc2C(C)C)CC1",
    "reported.result": "164 to 166 °C"
  },
  {
    "entry.smiles": "CCCc1ccc(S(=O)(=O)c2ccc(F)cc2)cc1S(=O)(=O)NCCc1cccnc1",
    "reported.result": "111 to 113 °C"
  },
  {
    "entry.smiles": "CC(C)c1cc(C(C)C)c(S(=O)(=O)c2ccccc2)cc1S(=O)(=O)NCCC1CCOCC1",
    "reported.result": "90 to 92 °C"
  },
  {
    "entry.smiles": "CC(C)c1ccc(S(=O)(=O)c2ccccc2)cc1S(=O)(=O)NC1CCN(C(=O)c2ccc3ccccc3c2)CC1",
    "reported.result": "130 to 132 °C"
  }
]

What does the data say about its melting point? Entry: `CC(C)c1cc(C(C)C)c(S(=O)(=O)c2ccc(F)cc2)cc1S(=O)(=O)NCCc1ccccc1`
154 to 156 °C

Reported melting point for `O=S(=O)(NCCc1ccccc1)c1cc(S(=O)(=O)c2ccccc2)ccc1C(F)(F)F` : what is it?
151 to 153 °C

====

- system.name: UniProtKB Q8N474
- Sequence (Q8N474 32-314): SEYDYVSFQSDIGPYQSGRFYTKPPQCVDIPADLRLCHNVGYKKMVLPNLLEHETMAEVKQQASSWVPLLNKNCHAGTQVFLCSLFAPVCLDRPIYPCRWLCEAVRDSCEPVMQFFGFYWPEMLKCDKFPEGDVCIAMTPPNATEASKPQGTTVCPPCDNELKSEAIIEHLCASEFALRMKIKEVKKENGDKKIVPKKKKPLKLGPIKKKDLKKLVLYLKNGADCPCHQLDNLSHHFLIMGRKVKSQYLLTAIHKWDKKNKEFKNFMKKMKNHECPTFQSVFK
- assay.method.text: Cell-based assay for in vitro measurement of SFRP-1/SARP2 antagonist activity (U2OS cells co-transfected with 16x TCF-tk-Luciferase reporter, Wnt and hSFRP-1)
- condition.summary: U2OS, read-out: Fold Induction with SFRP-1, Conc 15 μM; single dose; luciferase reporter, fold induction over SFRP-1 control; cells with SFRP-1
quantity.kind: fold induction at 15 µM

Before answering, review these 4 worked examples.
[
  {
    "molecule": "Cc1ccc(S(=O)(=O)c2ccc(F)cc2)cc1S(=O)(=O)NC1CCN(Cc2ccccc2)CC1",
    "fold induction at 15 µM": 2.1
  },
  {
    "molecule": "CC(C)c1ccc(S(=O)(=O)c2ccc(F)cc2)cc1S(=O)(=O)NCC1CCCO1 (stereo not shown)",
    "fold induction at 15 µM": 2.8
  },
  {
    "molecule": "CCCc1ccc(S(=O)(=O)c2ccc(F)cc2)cc1S(=O)(=O)NC1CCCC1",
    "fold induction at 15 µM": 2.8
  },
  {
    "molecule": "CNc1ccc(S(=O)(=O)c2ccc(C(C)C)c(S(=O)(=O)NCCc3ccccn3)c2)cc1Cl",
    "fold induction at 15 µM": 3.2
  }
]

a = CC(C)c1ccc(S(=O)(=O)c2ccc(F)cc2)cc1S(=O)(=O)NC1CCN(S(=O)(=O)c2cccc3c(N(C)C)cccc23)CC1
b = CC(C)c1ccc(S(=O)(=O)c2ccc(F)cc2)cc1S(=O)(=O)NC1CCN(C(=O)N2CCOCC2)CC1
Endpoint returns whichever of a and b has the numerically higher fold induction at 15 µM. Select an item and report its label.
a
(a: 3, b: 1.7)

====

- system.name: UniProt Q8N474
- assay.method.text: Cell-based assay for in vitro measurement of SFRP-1/SARP2 antagonist activity (U2OS cells co-transfected with 16x TCF-tk-Luciferase reporter, Wnt and hSFRP-1);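 further: U2OS cells co-transfected with a TCF-tk luciferase reporter, a Wnt vector, hSFRP-1 or empty vector and CMV-βgal, luciferase luminescence read in cell lysates alongside βgal activity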
- condition.summary: U2OS, read-out: Fold Induction with SFRP-1, Conc 15 μM; single dose; luciferase reporter, fold induction over SFRP-1 control; cells with SFRP-1
quantity.kind: fold induction at 15 µM

[
  {
    "entry.smiles": "Cc1ccccc1S(=O)(=O)c1ccc(C(C)C)c(S(=O)(=O)NC2CCOCC2)c1",
    "fold induction at 15 µM": 3.5
  },
  {
    "entry.smiles": "CCCc1ccc(S(=O)(=O)c2ccccc2)cc1S(=O)(=O)NCCc1ccccn1",
    "fold induction at 15 µM": 3.1
  },
  {
    "entry.smiles": "Cc1ccc(S(=O)(=O)c2ccc(F)cc2)cc1S(=O)(=O)NC1CCN(C(=O)c2ccc(C#N)cc2)CC1",
    "fold induction at 15 µM": 1.9
  },
  {
    "entry.smiles": "CC(C)c1ccc(S(=O)(=O)c2ccc(F)cc2)cc1S(=O)(=O)NC1CCCC1",
    "fold induction at 15 µM": 2.1
  }
]

P = CC(C)c1cc(C(C)C)c(S(=O)(=O)c2ccccc2)cc1S(=O)(=O)NCCC1CCOCC1
Q = CC(C)c1ccc(S(=O)(=O)c2ccc(F)cc2)cc1S(=O)(=O)NCCc1cccnc1
Hi team, can someone confirm which has the larger fold induction at 15 µM: P or Q ? Thanks. Kindly give the label for the entry you pick.
Q

1 = Cc1cc(N(C)C)ccc1S(=O)(=O)c1ccc(C(C)C)c(S(=O)(=O)NCCc2ccccn2)c1
2 = CC(C)c1ccc(S(=O)(=O)c2ccc(F)cc2)cc1S(=O)(=O)NC1CCC1
// select label with min value of measured fold induction at 15 µM from [ 1 , 2 ] Bench note: the answer is the label of the chosen record.
2
(2: 1.4, 1: 3)

A = COCC(=O)N1CCC(NS(=O)(=O)c2cc(S(=O)(=O)c3ccc(F)cc3)ccc2C(C)C)CC1
B = CC(C)c1ccc(S(=O)(=O)c2ccc(F)cc2)cc1S(=O)(=O)NC1CC1
Which gives the smaller fold induction at 15 µM number: A or B ? Write down the label of the entry you select.
B
